- System: MS2 coat protein
- experiment-description: apparent KD of MS2 coat protein; higher = weaker reporter binding
- condition-info: Eterna round: R107; input ligand: theophylline 2 mM
outcome-measure: apparent KD of MS2 coat protein

Entry GGCUACAUGAGGAUCACCCAUGUUUCUCGUCGAGGACCGGUACGGCCGCCACUCGUUGUUGGGACUCAGUAUCAGUCGUUAGUUU [theeternabot_sameState_MS2_Trp_A_36] has what apparent KD of MS2 coat protein?
40.2 nM

Try this sequence too: GGUCUCUGGAGCGAUACCAGCUUAAUCGUACUGGCCAGGUACAUGAGGAUCACCCAUGUAAGCCCUUGGCAGCGCUCCAGAGACC [#1 Exclusion - Theophylline B Attempt #11 (HarryS)]
14.4 nM

Same read-out for AGCAGCUCGAAAGAGUUGCACUCAUGUGAAGGAGCGCGCGUUAGCGCAGGUAGGUCGCACAUGAGGAUCACCCAUGUACCUUCUA [MAT - Exclusion Arginine A - Mod of Eli - D15] ?
268 nM

ACGGAUCGGAAACGAUCCGCGGCGAGGGUGCGAGGACCGGUACGGCCGCCACUCGGCUAACAUGAGGAUCACCCAUGUCCGAAGA [ETA NuPACK+Vienna+Vienna2 #9] , same question.
117 nM

Try this sequence next: AUAACAUGAGGAUCACCCAUGUAAGCUGAAGGAGCGGACGAAAGUCCAGGUAGGUCGCAGCGUUCCUUCACCUCAUGAGAAGGAG [SSArg-A #30 with U all better]
24 nM

Next: AUAAAUAAGGCGGCCGCCACUAAUAUAUUAAUAUUUUAUAUCCGACAUGAGGAUCACCCAUGUGGUAGGACCGGGCCAAUAAUUA [Same State - Tryptophan B]
25 nM

Follow-up entry: GUCUCUGGGAGAAGGAGCGUGAAGACAUGAGGAUCACCCAUGUAGAGGCGCCGACGGCGUUCGCAGGUAGGUCGCUCCCAGAGAC [#1 Same State - Arginine B Attempt #18 (HarryS)]
110 nM

Consider next the sequence AGCUCGCGAAAGCGAGCAACAUGAUCCGAAGGAGCGGGCGAAAGCCCAGGUAGGUCGCGGACAUGAGGAUCACCCAUGUCUCCUU [MAT - Exclusion Arginine A - Mod of Eli - D13] in the same way.
94.8 nM

Consider next the sequence AGUAUCAGUGGAAGGAGCGUCGCGACUGCCACAUGAGGAUCACCCAUGUCGCCUUGAGCGCGACAGGUAGGUCGCCACGGUAGGC [SS-ArgB2] in the same way.
499 nM

Now the same for ACAAGAGGGAUGGAUACCAGCGACAUGAGGAUCACCCAUGUAUGAGGAUCAGCCAUGUUAUGCCCUUGGCAGCCACGAACAUCAG [SSAMULLIN]
125 nM

Also need UGGUGUAGGGUAAAUAGGCUGAGUACAGAAGGAGCGCGAAUAAACGCAGGUAGGUCGCUGGACACAUGAGGAUCACCCAUGUUGA [Same State Arginine A GF 29] , thanks.
27.3 nM

Then ACACAUGAGGAUCACCCAUGUGCGCUGGAAGGAGCGCAGAAUCAUGCAGGUAGGUCGCCAGUGCCCUCUACUAAAGGGAAAAGAG [Diatsoceri] ?
92.9 nM

And then ACGCCCAGGUAGGCUUAGUGGGAUAUGGAAGGAGCGCCGAUGCAGGCAGGUAGGUCGCCAUAGAACAUGAGGAUCACCCAUGUAA [#05 Same State - Arginine A] , what is it?
33.1 nM

And for ACAUGAGGAUCACCCAUGUAAAUAACGGAAGGAGCGUGCGAAAGCACAGGUAGGUCGCCGAUAUAAAUAUUGGGUAUUAUAUUAU [#28 Exclusion - Arginine A] ?
29.1 nM
